- MEASUREMENT TARGET: Tyrosine-protein kinase ABL1 (Homo sapiens)
- Sequence (P00519 whole entry): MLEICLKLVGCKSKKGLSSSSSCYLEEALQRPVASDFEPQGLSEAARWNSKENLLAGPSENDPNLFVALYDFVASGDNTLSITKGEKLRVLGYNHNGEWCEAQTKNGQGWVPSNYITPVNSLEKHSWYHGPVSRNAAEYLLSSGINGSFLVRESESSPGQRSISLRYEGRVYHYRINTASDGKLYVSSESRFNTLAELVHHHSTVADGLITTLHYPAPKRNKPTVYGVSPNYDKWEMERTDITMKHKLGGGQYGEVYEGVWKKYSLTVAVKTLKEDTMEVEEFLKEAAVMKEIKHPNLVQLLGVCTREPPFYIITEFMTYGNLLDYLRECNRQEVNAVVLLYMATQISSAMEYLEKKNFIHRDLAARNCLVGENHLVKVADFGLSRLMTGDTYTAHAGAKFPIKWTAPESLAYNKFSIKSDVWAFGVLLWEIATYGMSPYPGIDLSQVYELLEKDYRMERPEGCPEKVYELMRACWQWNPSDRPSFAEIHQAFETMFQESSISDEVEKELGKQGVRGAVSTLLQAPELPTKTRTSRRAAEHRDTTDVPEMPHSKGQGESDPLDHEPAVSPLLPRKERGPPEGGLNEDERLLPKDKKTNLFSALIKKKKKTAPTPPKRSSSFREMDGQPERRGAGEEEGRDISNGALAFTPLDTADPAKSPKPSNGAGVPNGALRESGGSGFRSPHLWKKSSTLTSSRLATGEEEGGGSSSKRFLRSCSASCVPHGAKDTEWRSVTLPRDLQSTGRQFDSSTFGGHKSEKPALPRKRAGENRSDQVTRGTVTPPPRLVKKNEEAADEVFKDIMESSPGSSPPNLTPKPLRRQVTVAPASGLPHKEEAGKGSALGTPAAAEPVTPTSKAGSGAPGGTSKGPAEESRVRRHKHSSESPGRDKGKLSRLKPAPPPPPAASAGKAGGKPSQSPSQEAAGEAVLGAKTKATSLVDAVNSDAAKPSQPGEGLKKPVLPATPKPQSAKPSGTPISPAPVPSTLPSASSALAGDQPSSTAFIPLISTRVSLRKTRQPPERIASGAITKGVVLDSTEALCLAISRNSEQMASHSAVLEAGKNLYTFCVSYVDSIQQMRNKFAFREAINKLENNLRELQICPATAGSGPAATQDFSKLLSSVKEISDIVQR
EXPERIMENTAL READOUT: IC50 (µM)
Numbers only, in µM.

[ask] Record request: IC50 value, item `CSc1nn(-c2c(Cl)cc(Cl)cc2Cl)c2nc(C)[nH]c(=O)c12`
[reply] 420

====

- MEASUREMENT TARGET: Cyclin-dependent kinase 4/cyclin D1 (Homo sapiens)
- Sequence (P11802 whole entry): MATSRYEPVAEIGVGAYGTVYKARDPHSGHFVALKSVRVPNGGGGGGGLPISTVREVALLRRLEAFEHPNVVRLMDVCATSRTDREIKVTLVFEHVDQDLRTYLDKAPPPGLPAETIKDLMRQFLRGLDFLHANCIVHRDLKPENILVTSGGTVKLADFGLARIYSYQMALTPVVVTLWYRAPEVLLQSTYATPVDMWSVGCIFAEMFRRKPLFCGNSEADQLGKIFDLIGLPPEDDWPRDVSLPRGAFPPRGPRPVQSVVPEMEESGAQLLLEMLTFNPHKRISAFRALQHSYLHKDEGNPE
- Sequence (P24385 whole entry, further chain): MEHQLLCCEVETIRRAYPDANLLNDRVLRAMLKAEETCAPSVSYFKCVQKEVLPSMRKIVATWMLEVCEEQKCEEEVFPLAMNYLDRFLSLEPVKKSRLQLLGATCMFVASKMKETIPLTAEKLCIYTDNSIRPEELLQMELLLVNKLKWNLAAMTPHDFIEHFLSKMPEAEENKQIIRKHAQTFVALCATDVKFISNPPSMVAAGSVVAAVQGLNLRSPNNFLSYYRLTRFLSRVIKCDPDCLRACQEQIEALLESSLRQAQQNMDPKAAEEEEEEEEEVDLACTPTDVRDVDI
- PROTOCOL TEXT: Inhibition of Cyclin-dependent kinase 4-cyclin D1
- Assay type: protein-complex assay
EXPERIMENTAL READOUT: pIC50
Give bare numbers, as −log10 of the molar value.

Recorded results for 5 compounds are shown here.
CSc1nn(-c2c(Cl)cccc2Cl)c2nc(C)[nH]c(=O)c12; 5.28
CSc1nn(-c2c(Cl)cc(Cl)cc2Cl)c2nc(C3CC3)[nH]c(=O)c12; 5.37
CCc1nn(-c2c(Cl)cc(Cl)cc2Cl)c2nc(CCCCO)[nH]c(=O)c12; 5.62
CNCCc1nc2c(c(SC)nn2-c2c(Cl)cc(Cl)cc2Cl)c(=O)[nH]1; 4.55
CSc1nn(-c2ccc(Cl)cc2C)c2nc(C)[nH]c(=O)c12; 4.13

Items follow; give pIC50 for each.
1. CCc1nn(-c2c(Cl)cc(Cl)cc2Cl)c2nc(Cc3ccc(C)c(OC)c3)[nH]c(=O)c12
2. CSc1nn(-c2c(Cl)cc(Cl)cc2C(F)(F)F)c2nc(C)[nH]c(=O)c12
3. CCc1nn(-c2c(Cl)cc(Cl)cc2Cl)c2nc(Cc3cccnc3)[nH]c(=O)c12
4. CSc1nn(-c2c(Cl)cc(Cl)cc2Cl)c2nc(C(C)C)[nH]c(=O)c12

[reply]
5.68
4.54
5.89
5.00

Report pIC50 for each item below.
1. CSc1nn(-c2cc(Cl)ccc2Cl)c2nc(C)[nH]c(=O)c12
2. CSc1nn(-c2c(C)cc(Cl)cc2Cl)c2nc(C)[nH]c(=O)c12
3. CCc1nn(-c2c(Cl)cc(Cl)cc2Cl)c2nc(Cc3ccncc3)[nH]c(=O)c12
4. CCc1nn(-c2c(Cl)cc(Cl)cc2Cl)c2nc(Cc3ccc(OC)c(O)c3)[nH]c(=O)c12

[reply]
1. 4.64
2. 4.96
3. 5.52
4. 7.70

// input: 6 compounds below; output: pIC50 for each
1. C=Cc1nc2c(c(CC)nn2-c2c(Cl)cc(Cl)cc2Cl)c(=O)[nH]1
2. CCc1nn(-c2c(Cl)cc(Cl)cc2Cl)c2nc(Cc3ccc(O)c(O)c3)[nH]c(=O)c12
3. CSc1nn(-c2c(C)cc(C)cc2C)c2nc(C)[nH]c(=O)c12
4. CSc1nn(-c2c(Cl)cc(Cl)cc2Cl)c2nc(C)[nH]c(=O)c12
5. Cc1nc2c(c(CO)nn2-c2c(Cl)cc(Cl)cc2Cl)c(=O)[nH]1
6. Cc1nc2c(cnn2-c2c(Cl)cc(Cl)cc2Cl)c(=O)[nH]1

[reply]
[5.54, 7.40, 4.43, 5.68, 5.15, 4.92]

Hey, quick one: what's pIC50 for each of these?
1. CSc1nn(-c2c(Cl)cc(Cl)cc2Cl)c2nc[nH]c(=O)c12
2. Cc1nc2c(c(C(F)(F)F)nn2-c2c(Cl)cc(Cl)cc2Cl)c(=O)[nH]1
3. CCc1nn(-c2c(Cl)cc(Cl)cc2Cl)c2nc(Cc3ccc(O)c(OC)c3)[nH]c(=O)c12
4. COC(=O)c1nc2c(c(SC)nn2-c2c(Cl)cc(Cl)cc2Cl)c(=O)[nH]1

[reply]
1: 4.02; 2: 5.51; 3: 5.18; 4: 3.62

For each entry beneath this line, provide reported pIC50.
1. CSc1nn(-c2c(Cl)cc(Cl)cc2Cl)c2nc(Cc3ccccc3)[nH]c(=O)c12
2. CSc1nn(-c2ccccc2Cl)c2nc(C)[nH]c(=O)c12
3. CCc1nn(-c2c(Cl)cc(Cl)cc2Cl)c2nc(CCc3cnc[nH]3)[nH]c(=O)c12
4. CCc1nn(-c2c(Cl)cc(Cl)cc2Cl)c2nc(Cc3ccccc3CO)[nH]c(=O)c12
5. CCc1nn(-c2c(Cl)cc(Cl)cc2Cl)c2nc(Cc3ccc(O)cc3)[nH]c(=O)c12

[reply]
1: 4.96; 2: 4.72; 3: 5.44; 4: 5.54; 5: 5.70

====

What follows is a record of pIC50 for Cyclin-dependent kinase 2/cyclin E (Homo sapiens, UniProt P24941).
Give bare numbers, as −log10 of the molar value.

Example compounds with recorded pIC50:
CCc1nc2c(c(CC)nn2-c2c(Cl)cc(Cl)cc2Cl)c(=O)[nH]1; 7.05
CNCCc1nc2c(c(SC)nn2-c2c(Cl)cc(Cl)cc2Cl)c(=O)[nH]1; 5.18
CCc1nn(-c2c(Cl)cc(Cl)cc2Cl)c2nc(C)[nH]c(=O)c12; 6.85

For every item below, please supply its pIC50.
1. CCc1nn(-c2c(Cl)cc(Cl)cc2Cl)c2nc(Cc3cccc(NS(C)(=O)=O)c3)[nH]c(=O)c12
2. CCc1nn(-c2c(Cl)cc(Cl)cc2Cl)c2nc(CCc3cnc[nH]3)[nH]c(=O)c12
3. CCc1nn(-c2c(Cl)cc(Cl)cc2Cl)c2nc(Cc3ccncc3)[nH]c(=O)c12
4. CCc1nn(-c2c(Cl)cc(Cl)cc2Cl)c2nc(Cc3ccc(N)cc3)[nH]c(=O)c12
5. CCc1nn(-c2c(Cl)cc(Cl)cc2Cl)c2nc(-c3ccc(OC)c(OC)c3)[nH]c(=O)c12
6. CCc1nn(-c2c(Cl)cc(Cl)cc2Cl)c2nc(Cc3ccccc3)[nH]c(=O)c12

[reply]
6.59
6.21
7.52
8.00
6.24
7.70

====

- PROTOCOL TEXT: Partition coefficient (logP)
- Type: physicochemical
- ASSAY CONDITIONS: octanol/water
Please go through the items and note down their logP.
One number for each entry.

Known results for compounds:
CCc1nn(-c2c(Cl)cc(Cl)cc2Cl)c2nc(Cc3ccc(NC(=O)CN)cc3)nc(O)c12; 3.3
CN(C)c1ccc(C(=C2C=CC(=[N+](C)C)C=C2)c2ccc(N(C)C)cc2)cc1.CN(C)c1ccc(C(=C2C=CC(=[N+](C)C)C=C2)c2ccc(N(C)C)cc2)cc1.CN=C1C=CC(=C(c2ccc(N(C)C)cc2)c2ccc(N(C)C)cc2)C=C1; 4.2
CCc1nn(-c2c(Cl)cc(Cl)cc2Cl)c2nc(Cc3ccc(NC(=O)CNC(=O)OC(C)(C)C)cc3)[nH]c(=O)c12; 4.9
CCc1nn(-c2c(Cl)cc(Cl)cc2Cl)c2nc(Cc3ccc(N)cc3)[nH]c(=O)c12; 3.8

[ask] Look up logP for this compound: `CCc1nn(-c2c(Cl)cc(Cl)cc2Cl)c2nc(Cc3ccc(NC(C)=O)cc3)[nH]c(=O)c12`
[reply] 3.9

====

So I've got a bunch of compounds here, and I need their pIC50 values.
- MEASUREMENT TARGET: Cyclin-dependent kinase 4/cyclin D1 (Homo sapiens)
- PROTOCOL TEXT: Inhibition of Cyclin-dependent kinase 4-cyclin D1
- Assay type: protein-complex assay
Give bare numbers, as −log10 of the molar value.

Take each entry in turn and give its pIC50.
1. CSc1nn(-c2c(Cl)cc(C(F)(F)F)cc2Cl)c2nc(C)[nH]c(=O)c12
2. CSc1nn(-c2c(Cl)cc(Cl)cc2Cl)c2nc(CF)[nH]c(=O)c12
3. CSc1nn(-c2c(Cl)cc(Cl)cc2Cl)c2nc(CCCO)[nH]c(=O)c12

[reply]
1. 5.10
2. 4.36
3. 4.89

Kindly give each listed record's pIC50.
1. CCc1nn(-c2c(Cl)cc(Cl)cc2Cl)c2nc(Cc3ccc(OC)c(OC)c3)[nH]c(=O)c12
2. CSc1nn(-c2c(Cl)cc(Cl)cc2Cl)c2nc(CCCCCO)[nH]c(=O)c12
3. CCCc1nn(-c2c(Cl)cc(Cl)cc2Cl)c2nc(C)[nH]c(=O)c12

[reply]
1: 5.35; 2: 5.00; 3: 5.24

[ask] Quick one: pIC50 of `CSc1nn(-c2ccc(Cl)cc2Cl)c2nc(C)[nH]c(=O)c12` ?
[reply] 4.43

====

So I've got a bunch of compounds here, and I need their IC50 values.
- MEASUREMENT TARGET: Cyclin-dependent kinase 4/cyclin D1 (Homo sapiens)
- PROTOCOL TEXT: Inhibition of Cyclin-dependent kinase 4-cyclin D1
- Type: protein-complex assay
One number for each entry, in µM.

Examples from the recorded data:
CCc1nc2c(c(CC)nn2-c2c(Cl)cc(Cl)cc2Cl)c(=O)[nH]1; 0.94
CCc1nn(-c2c(Cl)cc(Cl)cc2Cl)c2nc(Cc3cccc(NS(C)(=O)=O)c3)[nH]c(=O)c12; 0.16
CSc1nn(-c2cc(C)ccc2C)c2nc(C)[nH]c(=O)c12; 25
CCc1nn(-c2c(Cl)cc(Cl)cc2Cl)c2nc(Cc3ccc(NC(C)=O)cc3)[nH]c(=O)c12; 1.3
CSc1nn(-c2cc(C(F)(F)F)ccc2Cl)c2nc(C)[nH]c(=O)c12; 15

Next, consider the following compound.
[ask] Fill blank: measured IC50 of the compound `CCc1nn(-c2c(Cl)cc(Cl)cc2Cl)c2nc(Cc3ccccn3)[nH]c(=O)c12` is ____.
[reply] 9.7
